Test system: 22RV1 cells
Assay: MTT antiproliferative assay, 22RV1 cells
Assay type: cell-based
Conditions: Homo sapiens, 22Rv1, 72 h, MTT assay, exposure for 72 h
Catalogue of compounds with associated IC50

Some compounds with recorded IC50:
                                smiles_code  measure  meas_value
0  COc1ccc(CN(C(=O)CSc2nc3ccccc3s2)c2ccc(Cl)c(Cl)c2)cc1     IC50     > 20 µM
1  COc1cc(N(Cc2cccc(Cl)c2)C(=O)CSc2nc3ccccc3s2)cc(OC)c1OC     IC50     > 12 µM

// switching to the query compound
Entry COc1cc(N(Cc2ccc(Cl)cc2)C(=O)CSc2nc3ccccc3s2)cc(OC)c1OC ; IC50 = > 12 µM
